Biological target: Hexose transporter 1 (Plasmodium falciparum)
Assay: ST_JUDE_LEISH: Cytotoxicity at 2uM final concentration against transgenic Leishmania Mexicana promastigotes LmPfHT that are glucose transport deficient and complemented with the Plasmodium falciparum hexose transporter. Activity is measured by DNA content using SYBR green in vitro
Type: functional
value_type: inhibition (%)
State just the number; it will be interpreted in %.

>>> print(df.to_string())
                                   compound                                    system  unit_of_measurement  measurement
0  O=C(Nc1cccc(-c2cccc(-c3nc4cc(F)ccc4[nH]3)c2)c1)Nc1ccc(F)c(F)c1F  Hexose transporter 1 (Plasmodium falciparum)                    %         7.26

Lab note: next compound to report on.
Record O=C(Nc1ccc(F)cc1)NC1CCN(c2ccnc3cc(Cl)ccc23)C1 (stereo not given) : what is its inhibition with Hexose transporter 1 (Plasmodium falciparum)?
-1.17

* * *

Target: Glucose transporter (Leishmania mexicana) (UniProt O61059)
Assay: ST_JUDE_LEISH: Cytotoxicity at 2uM final concentration against transgenic Leishmania Mexicana promastigotes LmGT2 that are glucose transport deficient and complemented with the L. Mexicana glucose transporter 2. Activity is measured by DNA content using SYBR green in vitro
Type: functional
Known inhibition of a selection of molecules
State just the number; it will be interpreted in %.

Example entries and their recorded answers appear below.
In [3]: df
Out[3]:
                                   molecule  measurement
0  CC(C)CCNC(=O)C1Cc2c([nH]c3ccc(Br)cc23)C2(CCN(CCc3ccccc3)CC2)N1 (stereo not given)         0.26
1  CCC[C@@H]([C@@H](CC1CCCCC1)C(=O)N[C@H](C(=O)Nc1nccs1)[C@@H](C)OCc1ccccc1)N(O)C=O         2.53
2  Cc1ccc(-c2ccc3c(c2)C=C(C(=O)NC2CCN(CCNC(=O)c4cccs4)CC2)CCC3)cc1         2.25

For the molecule shown here, "O=C(/C=C/c1ccc(Cl)c(Cl)c1)NCCCCCN1CCCN(C(=O)Nc2ccc(Cl)c(C(F)(F)F)c2)CC1" , give the reported inhibition.
-2.37

For the molecule shown here, "Cc1[nH]c(C)c(-c2ccc(Oc3cccc(Cl)c3)cc2)c(=O)c1Cl" , give the reported inhibition.
4.29

* * *

Target: Glucose transporter (Leishmania mexicana) (UniProt O61059)
Test: ST_JUDE_LEISH: Cytotoxicity at 2uM final concentration against transgenic Leishmania Mexicana promastigotes LmGT2 that are glucose transport deficient and complemented with the L. Mexicana glucose transporter 2. Activity is measured by DNA content using SYBR green in vitro
Format: functional
value_type: inhibition (%)
State just the number; it will be interpreted in %.

Example entries and their recorded answers appear below.
>>> print(df.to_string())
                                   molecule  measurement
0  CN1CCN(CCCN(Cc2ccc(-c3ccc(CNCc4ccc5c(c4)OCO5)cc3)cc2)C(=O)Nc2ccccc2)CC1           11
1  CCCN(CCC)C(C)CCC(C)Nc1c2ccc(Cl)cc2nc2ccc(OC)cc12 (stereo unspecified)         2.82
2  CC(=O)Nc1nc(C(=O)Nc2ccc(-c3cccc(-c4nc5ccccc5[nH]4)c3)cc2)cs1         0.42

For the molecule shown here, "COc1ccc([N+](=O)[O-])cc1N(Cc1ccccc1-c1ccccc1)S(=O)(=O)c1ccc(C(F)(F)F)cc1" , give the reported inhibition.
2.13

For the molecule shown here, O=C(Nc1cc(F)cc(F)c1)NC1CCN(CCCCCNC(=O)C2CC2c2ccc(Cl)c(Cl)c2)CC1 (stereo unspecified) , give the reported inhibition.
-2.77

For the molecule shown here, "Cc1cc2cc(NC(=O)Nc3ccnc4ccccc34)ccc2n1C" , give the reported inhibition.
0.82
